Test system: IGROV-1
Assay: NCI tumour cell line growth inhibition, 48 h
Active and inactive are the calls of the source. No stated cut-off is given here; in the data, active = GI50 up to about 1.1 µM and inactive = higher.
For each of the compounds below, state its GI50.

Lookup: Let me know recorded GI50 for CCOC(=O)C1S(=O)(=O)OCCOS1(=O)=O , thanks.
Found: > 100 µM (inactive)

Lookup: Let me know recorded GI50 for CC(C)(/N=N/C(C)(C)C(=O)NCCO)C(=O)NCCO , thanks.
Found: > 100 µM (inactive)

Lookup: Let me know recorded GI50 for C=C(Cl)C(=C)CCC(Cl)C(C)C (configuration not stated) , thanks.
Found: > 100 µM (inactive)

Lookup: Let me know recorded GI50 for COC(=O)C1CCC(=O)N1C(c1ccc2c(c1)OCO2)c1cc(OC)c(OC)c(OC)c1 (configuration not stated) , thanks.
Found: > 100 µM (inactive)

Lookup: Let me know recorded GI50 for COC(=O)[C@@]1(Cc2ccc(OC(C)=O)cc2)Cc2cc3ccccc3n2N1 , thanks.
Found: 55.8 µM (inactive)

Lookup: Let me know recorded GI50 for CC#C[C@@]1(O)CCCC[C@@H]1O , thanks.
Found: > 100 µM (inactive)

Lookup: Let me know recorded GI50 for NC(=O)c1cn(C2OC(CO)C(O)C2O)c(=O)[nH]c1=O (configuration not stated) , thanks.
Found: > 100 µM (inactive)

Lookup: Let me know recorded GI50 for O=C(O)CCCc1ccc2ccc3ccccc3c2c1 , thanks.
Found: > 100 µM (inactive)

Lookup: Let me know recorded GI50 for C/C(CC(=O)Nc1ccccc1[N+](=O)[O-])=N\NC(N)=O , thanks.
Found: > 100 µM (inactive)

Lookup: Let me know recorded GI50 for C#CCOC(=O)C(=[N+]=[N-])C(=O)CC(C)C , thanks.
Found: > 10 µM (inactive)

Lookup: Let me know recorded GI50 for O=C1OCc2c1cc1ccc(O)c(OC3OC(CO)C(O)C(O)C3O)c1c2-c1ccc2c(c1)OCO2 (configuration not stated) , thanks.
Found: > 100 µM (inactive)

Lookup: Let me know recorded GI50 for CC(C)(Br)C(Br)CCC1(C2CO2)CO1 (configuration not stated) , thanks.
Found: > 5 µM (inactive)
